Would you mind telling me the reported %Inh of each entry?
Tested on: TSSK3;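 also: KINOMEscan kinase panel screen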
Conditions: concentration: 1 μM,replicates: in singlicate; n = 1
One number for each entry, in %.

Here's what some known entries look like.
• Cc1n[nH]c2ccc(-c3cc(OC[C@@H](N)Cc4ccccc4)cnc3-c3ccoc3)cc12.O=C(O)C(F)(F)F.O=C(O)C(F)(F)F [GSK507358] = 6
• O=C(NCCCN1CCOC1=O)c1cnc(NCc2cc(Cl)ccc2Cl)nc1NC1CCCC1 = 0
• CNC(=O)c1ccccc1Sc1ccc2c(/C=C/c3ccccn3)n[nH]c2c1 = 1

Would you mind giving %Inh for every compound in the list below?
1. CCN(CC)CCOc1ccc(Nc2ncc3cc(-c4c(Cl)cccc4Cl)c(=O)n(C)c3n2)cc1 [SB-601273]
2. C[C@H]1Oc2cc(cnc2N)-c2c(nn(C)c2C#N)CN(C)C(=O)c2ccc(F)cc21

Marked response:
1. 24
2. 0

Would you mind giving %Inh for every compound in the list below?
1. O=C(NCCNc1ccnc(NCc2ccc(F)cc2)n1)c1cc2ccccc2s1 [GSK1379944]
2. Cl.Oc1cc(-c2nc(-c3ccccc3)[nH]c2-c2ccncc2)ccc1Cl [SB-386023]
3. CN(C)CCOc1ccc(-c2cc(-c3c[nH]nc3-c3ccccn3)ccn2)cc1 [GW835314]

Marked response:
[4, 0, 0]
